pKd for assorted compounds
target: Am2136 WT (Akkermansia muciniphila, UniProt B2UPR7); construct: The coding region (residue Q20-L756) of Am2136 without signal peptide was based on UniProt; 6XHis (N); made in house; host or cells: E. coli BL21 (DE3); assay: Nucleotide binding affinity by intrinsic fluorescence; conditions: Am2136 WT; fluorescence ex 286 nm/em 336 nm
Hey, just a heads up that pKd is the negative log base 10 of the concentration in molar.

What does the record list as pKd for "Nc1ncnc2c1ncn2[C@@H]1O[C@H](COP(=O)(O)OP(=O)(O)OP(=O)(O)O)[C@@H](O)[C@H]1O" ?
3.61

Also check "Nc1nc2c(ncn2[C@@H]2O[C@H](COP(=O)(O)OP(=O)(O)OP(=O)(O)O)[C@@H](O)[C@H]2O)c(=O)[nH]1"
3.91

Also check "O=c1ccn([C@@H]2O[C@H](COP(=O)(O)OP(=O)(O)OP(=O)(O)O)[C@@H](O)[C@H]2O)c(=O)[nH]1"
3.70

Also check "Nc1nc2c(ncn2[C@@H]2O[C@H](COP(=O)(O)OP(=O)(O)O)[C@@H](O)[C@H]2O)c(=O)[nH]1"
3.94

Also check "Nc1ccn([C@@H]2O[C@H](COP(=O)(O)OP(=O)(O)OP(=O)(O)O)[C@@H](O)[C@H]2O)c(=O)n1"
3.78

Also check "Nc1ncnc2c1ncn2[C@@H]1O[C@H](COP(=O)(O)OP(=O)(O)O)[C@@H](O)[C@H]1O"
3.59

Also check "Nc1ccn([C@@H]2O[C@H](COP(=O)(O)OP(=O)(O)O)[C@@H](O)[C@H]2O)c(=O)n1"
3.80

Also check "O=c1ccn([C@@H]2O[C@H](COP(=O)(O)OP(=O)(O)O)[C@@H](O)[C@H]2O)c(=O)[nH]1"
3.75

---

target: Am2136 R256A (Akkermansia muciniphila, UniProt B2UPR7, R256A); assay: Nucleotide binding affinity by intrinsic fluorescence, mutant; design: The coding region (residue Q20-L756) of Am2136 without signal peptide was based on UniProt; 6XHis (N); made in house; host or cells: E. coli BL21 (DE3)
Sequence (B2UPR7 20-756 R256A): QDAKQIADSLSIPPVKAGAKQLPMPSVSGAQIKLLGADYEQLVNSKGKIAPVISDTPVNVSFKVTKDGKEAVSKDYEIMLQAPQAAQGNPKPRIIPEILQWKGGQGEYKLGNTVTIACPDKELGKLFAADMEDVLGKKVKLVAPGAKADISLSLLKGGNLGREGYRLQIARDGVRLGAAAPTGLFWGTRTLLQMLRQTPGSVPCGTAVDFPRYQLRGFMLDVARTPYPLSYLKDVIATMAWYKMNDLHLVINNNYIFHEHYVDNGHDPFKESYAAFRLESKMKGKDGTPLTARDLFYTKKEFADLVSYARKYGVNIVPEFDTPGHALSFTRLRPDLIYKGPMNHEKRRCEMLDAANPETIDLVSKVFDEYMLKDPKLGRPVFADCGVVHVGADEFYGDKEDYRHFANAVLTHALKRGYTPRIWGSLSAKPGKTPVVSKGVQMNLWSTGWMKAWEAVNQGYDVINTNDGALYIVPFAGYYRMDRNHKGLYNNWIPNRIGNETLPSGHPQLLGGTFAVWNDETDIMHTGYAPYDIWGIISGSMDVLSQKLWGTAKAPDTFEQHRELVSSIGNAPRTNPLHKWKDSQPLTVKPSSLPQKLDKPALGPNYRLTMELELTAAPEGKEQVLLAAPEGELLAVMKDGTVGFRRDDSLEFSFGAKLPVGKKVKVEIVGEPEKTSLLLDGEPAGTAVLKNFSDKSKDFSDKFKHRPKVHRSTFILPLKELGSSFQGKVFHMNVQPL
reported_property: pKd
Hey, just a heads up that pKd is the negative log base 10 of the concentration in molar.

What does the record list as pKd for "Nc1nc2c(ncn2[C@@H]2O[C@H](COP(=O)(O)OP(=O)(O)O)[C@@H](O)[C@H]2O)c(=O)[nH]1" ?
3.80

---

target: Am2136 WT (Akkermansia muciniphila); construct: The coding region (residue Q20-L756) of Am2136 without signal peptide was based on UniProt; 6XHis (N); made in house; host or cells: E. coli BL21 (DE3); assay: Nucleotide binding affinity by intrinsic fluorescence; settings: WT dialyzed + Mg^2+
reported_property: Kd (µM)
Write it as a number; the unit µM goes unstated.

What does the record list as Kd for "Nc1nc2c(ncn2[C@@H]2O[C@H](COP(=O)(O)OP(=O)(O)O)[C@@H](O)[C@H]2O)c(=O)[nH]1" ?
118

---

molecular target: Am2136 (Akkermansia muciniphila, UniProt B2UPR7); construct: The coding region (residue Q20-L756) of Am2136 without signal peptide was based on UniProt; 6XHis (N); made in house; host or cells: E. coli BL21 (DE3); experiment: Oligosaccharide hydrolysis, released GlcNAc by HPLC-QqQ-MS; format: biochemical; settings: 1.2 mM substrate, 4 μM Am2136, 37°C, 240 min, without GDP
Sequence (B2UPR7 20-756): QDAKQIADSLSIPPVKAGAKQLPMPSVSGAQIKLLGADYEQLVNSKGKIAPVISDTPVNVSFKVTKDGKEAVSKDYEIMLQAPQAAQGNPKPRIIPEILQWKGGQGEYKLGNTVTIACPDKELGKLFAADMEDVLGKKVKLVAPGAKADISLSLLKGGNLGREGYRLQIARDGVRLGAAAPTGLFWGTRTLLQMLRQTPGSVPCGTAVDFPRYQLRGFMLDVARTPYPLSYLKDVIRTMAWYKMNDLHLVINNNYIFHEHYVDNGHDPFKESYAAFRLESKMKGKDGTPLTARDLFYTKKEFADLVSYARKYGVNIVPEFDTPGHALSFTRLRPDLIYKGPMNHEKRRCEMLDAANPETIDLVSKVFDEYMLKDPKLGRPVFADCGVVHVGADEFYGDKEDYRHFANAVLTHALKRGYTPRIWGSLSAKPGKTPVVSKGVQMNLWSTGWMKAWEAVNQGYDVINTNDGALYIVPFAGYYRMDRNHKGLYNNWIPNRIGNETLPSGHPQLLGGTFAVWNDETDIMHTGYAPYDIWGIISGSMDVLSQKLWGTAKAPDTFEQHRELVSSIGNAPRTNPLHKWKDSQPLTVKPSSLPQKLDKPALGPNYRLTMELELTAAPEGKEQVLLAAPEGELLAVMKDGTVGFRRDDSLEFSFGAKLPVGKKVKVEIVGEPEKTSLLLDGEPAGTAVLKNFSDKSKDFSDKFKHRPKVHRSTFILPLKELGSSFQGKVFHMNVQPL
reported_property: GlcNAc released (µM)
Write it as a number; the unit µM goes unstated.

compound	endpoint_value
COC1O[C@H](CO)[C@H](O)[C@H](O[C@@H]2O[C@H](CO)[C@@H](O)[C@H](O)[C@H]2NC(C)=O)[C@H]1O (stereo partly drawn) [Methyl GlcNAc-(β1,3)Gal]	448

What does the record list as GlcNAc released for CC(=O)N[C@H]1[C@H](O[C@@H]2C(O)O[C@H](CO)[C@@H](O)[C@@H]2O)O[C@H](CO)[C@@H](O)[C@@H]1O (stereo partly drawn) [GlcNAc-(β1,2)Man] ?
671

Also check CC(=O)N[C@H]1[C@@H](Oc2ccc([N+](=O)[O-])cc2)O[C@H](CO[C@@H]2O[C@H](CO)[C@@H](O)[C@H](O)[C@H]2NC(C)=O)[C@H](O)[C@@H]1O [GlcNAc-(β1,6)GalNAc-α-pNP]
308

Also check CC(=O)N[C@H]1[C@H](OC[C@H]2O[C@@H](O[C@H]3[C@H](O)[C@@H](O)C(O)O[C@@H]3CO)[C@H](O)[C@@H](O)[C@H]2O)O[C@H](CO)[C@@H](O)[C@@H]1O (stereo partly drawn) [GlcNAc-(β1,6)Gal-(β1,4)Glc]
549
